- TARGET_UNDER_TEST: SaHepPPS (Staphylococcus aureus)
pIC50: −log10 of the molar value.
ASSAY_READOUT: pIC50

Asked: Provide the reported pIC50 (system: SaHepPPS (Staphylococcus aureus)) for O=P(O)(O)C(O)(Cn1ccnc1)P(=O)(O)O [compound 15, zoledronate]
Given back: ~4.00

* * *

- TARGET_UNDER_TEST: SaHepPPS (Staphylococcus aureus)
- ASSAY_COMMENT: biochemical
- Type: biochemical
- TEST_PARAMETERS: read-out: Kd (dissociation constant for the inhibitory SES ternary complex); substrate inhibition at high substrate concentrations
ASSAY_READOUT: Kd

Asked: Provide the reported Kd (system: SaHepPPS (Staphylococcus aureus)) for C=C(C)CCOP(=O)(O)OP(=O)(O)O [IPP, isopentenyl diphosphate]
Given back: 300 µM
